tested on: SW-620 colon; assay: NCI tumour cell line growth inhibition, 48 h
# Lookup of reported GI50 keyed by entry

{"columns": ["compound", "GI50"],
 "data": [
  ["OCC1OC(n2ccc3c2ncn2ncnc32)C(O)C1O (centres undefined)", "0.528 µM"],
  ["Nc1ncnc2sc(=S)c3c(c12)CCC3", "33.5 µM"],
  ["O=S(=O)(c1ccc(NC(=S)NCc2cccnc2)cc1)N1CCCCC1", "0.579 µM"],
  ["N#CC(C#N)=CN1CCN(C(=O)c2ccco2)C1=S", "5.62 µM"]
]}

----------
tested on: SF-268 CNS; test: NCI tumour cell line growth inhibition, 48 h
Parameter TGI: see the listing below.

{"columns": ["molecule", "TGI"],
 "data": [
  ["CCc1ccc(NC(=O)Nc2c[nH]c3ccccc23)cc1", "> 43.4 µM"],
  ["Cc1c2ccncc2cc2c1sc1ccncc12", "14.4 µM"],
  ["CC(C)=CCCC1(C)C=Cc2c(c(C)cc3c2[nH]c2cc(O)ccc23)O1 (stereo unspecified)", "> 25 µM"],
  ["O=C1C(Cl)=C(N/N=c2/[nH][nH]/c(=N/NC3=C(Cl)C(=O)c4ccccc4C3=O)c3ccccc23)C(=O)c2ccccc21", "29.9 µM"],
  ["CCCCCC(=O)Nc1n[nH]nc1C(N)=O", "> 100 µM"],
  ["CC(C)=CCOc1cc(NC(=S)c2ccoc2C)ccc1Cl", "> 100 µM"]
]}
